assay: Solubility (Table A); format: physicochemical; conditions: solvents in which the compound is soluble
recorded endpoint: SOLUBILITY

N#CC(C#N)=Cc1ccc(C(=O)[O-])cc1.[Na+] | Water
N#CC(C#N)=Cc1ccc(OCC(=O)[O-])cc1.[Na+] | Water
